Test system: L1210 leukemia ip in BDF1 mice, survival T/C
Assay: NCI In Vivo Anticancer Drug Screen. Data for tumor model L1210 Leukemia (intraperitoneal) in B6D2F1 (BDF1) mice
Settings: endpoint: mean survival time; dose: 100.0 mg/kg/injection; schedule: Q04DX003 (ip); vehicle: saline with Tween-80; higher = longer survival
Toxic doses and inconclusive results are not listed.
readoutType: T/C

Consider C1CC2OC2C1 (configuration not stated) . Its measured T/C is 97 % of control

Consider `Nc1nc(N)c(-c2ccc(Cl)c(Cl)c2)c(CO)n1` . Its measured T/C is 98 % of control

Consider `CC(C)=CCn1c(=O)c2c(ncn2C)n(C)c1=O` . Its measured T/C is 98 % of control

Consider `COc1cc(/C=N\NC(=O)c2ccncc2)ccc1O` . Its measured T/C is 100 % of control

Consider `O=C(Nc1cc[n+](Cc2ccc(S(=O)(=O)F)cc2)cc1)c1ccccc1` . Its measured T/C is 96 % of control

Consider `O=C(Nc1ccccc1)Nc1ccc(F)cc1` . Its measured T/C is 101 % of control

Consider `Cc1ccc(C(C)C)cc1NC(=O)/C=C/c1ccccc1` . Its measured T/C is 88 % of control

Consider CCCCC(C=O)(C=C=C(C)C)CC (configuration not stated) . Its measured T/C is 92 % of control

Consider `COc1cc(NC(=O)CC(C)=O)c(OC)cc1Cl` . Its measured T/C is 100 % of control

Consider `ClCCOCCOCCOCCCl` . Its measured T/C is 97 % of control

Consider `COC(=O)c1cc(Cl)ccc1OCC(=O)NCc1ccc(Cl)cc1` . Its measured T/C is 89 % of control

Consider CC(C)c1ccc(C(O)C2CC2)cc1 (configuration not stated) . Its measured T/C is 94 % of control

Consider `Nc1nc2nn(-c3ccccc3)nc2c(=O)[nH]1` . Its measured T/C is 100 % of control

Consider `Cc1c(Cl)cccc1NC(=O)N(C)Cc1ccccc1` . Its measured T/C is 97 % of control

Consider `CN(C(=O)Sc1ccc([N+](=O)[O-])cc1)c1ccccc1` . Its measured T/C is 91 % of control

Consider `O=C(Nn1cn[nH]c1=S)Oc1ccccc1` . Its measured T/C is 103 % of control

Consider CCCCC(CC)CO.[Ti] (configuration not stated) . Its measured T/C is 96 % of control

Consider COc1cc2c(cc1OC)C1Cc3ccc(OC)c(OC)c3CN1CC2 (configuration not stated) . Its measured T/C is 116 % of control

Consider `COc1cc(C(C)=O)cc([N+](=O)[O-])c1O` . Its measured T/C is 107 % of control

Consider COc1ccc(CCNC(=O)C2(C(C)C)OC3(O)C4CCCN4C(=O)C(C(C)C)N3C2=O)cc1OC (configuration not stated) . Its measured T/C is 98 % of control

Consider `Cc1c(Cl)c(C)c(Cl)c(O)c1Cl` . Its measured T/C is 97 % of control

Consider `CCCCCCCCCCOc1ccc2ccccc2c1` . Its measured T/C is 100 % of control

Consider `Clc1nc2nc(C3CC3)[nH]c2nc1Cl` . Its measured T/C is 97 % of control

Consider `Oc1c(Br)cc(Br)cc1C=Nc1ccc(Cl)cc1.Oc1c(Br)cc(Br)cc1C=Nc1ccc(Cl)cc1.[Co]` . Its measured T/C is 98 % of control

Consider `N#CC(C#N)C(=O)c1ccccc1` . Its measured T/C is 95 % of control

Consider `CCCCn1c(N)n[nH]c1=S` . Its measured T/C is 100 % of control

Consider `NCCCN1CCCN=C1C1=NCCCN1CCCN` . Its measured T/C is 109 % of control
